The entries below are paired with their reported pEC50.
Target: T1, human CNTN4-rabbit Fc (human; rabbit, UniProt Q8IWV2 19-1000, limits assumed)
T1 construct: not shown: rabbit Fc
T1 sequence (looked up): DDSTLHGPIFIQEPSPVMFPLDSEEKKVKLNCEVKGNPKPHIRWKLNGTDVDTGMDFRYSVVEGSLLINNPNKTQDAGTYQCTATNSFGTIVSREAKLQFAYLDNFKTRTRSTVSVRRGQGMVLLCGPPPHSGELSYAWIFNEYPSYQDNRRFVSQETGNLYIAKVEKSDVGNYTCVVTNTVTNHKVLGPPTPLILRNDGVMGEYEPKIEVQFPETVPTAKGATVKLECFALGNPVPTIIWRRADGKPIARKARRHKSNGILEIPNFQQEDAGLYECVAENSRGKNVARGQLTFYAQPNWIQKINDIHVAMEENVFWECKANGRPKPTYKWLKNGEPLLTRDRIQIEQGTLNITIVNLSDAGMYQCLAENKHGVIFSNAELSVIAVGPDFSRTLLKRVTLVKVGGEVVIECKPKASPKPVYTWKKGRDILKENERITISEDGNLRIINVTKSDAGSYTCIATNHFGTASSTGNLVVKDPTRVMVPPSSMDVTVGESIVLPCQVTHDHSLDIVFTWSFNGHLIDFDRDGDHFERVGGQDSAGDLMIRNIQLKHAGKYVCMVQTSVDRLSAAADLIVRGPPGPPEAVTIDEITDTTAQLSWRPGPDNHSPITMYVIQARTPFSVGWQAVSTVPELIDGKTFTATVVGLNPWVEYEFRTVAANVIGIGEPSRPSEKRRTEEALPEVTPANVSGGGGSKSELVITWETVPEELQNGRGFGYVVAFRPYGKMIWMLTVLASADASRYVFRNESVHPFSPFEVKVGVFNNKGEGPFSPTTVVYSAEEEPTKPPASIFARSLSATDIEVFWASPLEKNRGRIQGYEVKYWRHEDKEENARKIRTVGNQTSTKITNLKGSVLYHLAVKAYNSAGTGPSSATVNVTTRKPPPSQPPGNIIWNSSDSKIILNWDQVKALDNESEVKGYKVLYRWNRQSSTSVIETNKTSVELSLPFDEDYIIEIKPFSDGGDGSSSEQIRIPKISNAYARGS
Assay: ELISA, plate coated with antigen-rabbit Fc, anti-human IgG Fc-HRP
Would you please state pEC50, meaning minus log10 of the concentration in mol/L, as a bare number?

anti-CNTN4 IgG A13WB24 (antibody, V domains shown, human IgG4 (S228P)) VH: AVTLDESGGGLHTPGGALSLVCKASGFTFSSYGMAWVRQAPGKGLEWVAGITSSGSSAGYGPAVKGRATISRDNGQSTVRLQLNNLRAEDTATYYCAKDGYIYSGADSDSIDAWGHGTEVIVSS VL: ALTQPSSVSANPGGTVEITCSGGGNNNYGWYQQKSPGSAPVTLIYYNDNRPSDIPSRFSGSKSGSTATLTITGVQAEDEAVYYCGGYDISYVDIFGAGTTLTVL : 11.00

Any idea what pEC50 was measured for anti-CNTN4 IgG A35WB1 (antibody, V domains shown, human IgG4 (S228P)) VH: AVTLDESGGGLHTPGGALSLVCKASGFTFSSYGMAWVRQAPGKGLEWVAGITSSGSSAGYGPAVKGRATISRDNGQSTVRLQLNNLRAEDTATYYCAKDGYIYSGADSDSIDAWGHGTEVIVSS VL: ALTQPSSVSANPGETVKITCSGGSGSYGWYQQKSPGSAPVTVIYNNDQRPSNIPSRFSGSKSGSTATLTITGVQVEDEAVYFCGGWDSNSGAIFGAGTTLTVL ?
10.70

Query (binder): anti-CNTN4 IgG A35SF37 (antibody, V domains shown, human IgG4 (S228P)) VH: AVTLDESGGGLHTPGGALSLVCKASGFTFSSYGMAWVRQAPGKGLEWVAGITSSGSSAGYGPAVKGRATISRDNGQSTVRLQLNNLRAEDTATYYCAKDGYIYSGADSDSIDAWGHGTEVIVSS VL: ALTQPSSVSANLGGTVKITCSGGSNNYGWYQQKSPGSAPVTVIYYNNKRPSDIPSRFSGSKSGSTATLTITGVQAEDEAVYFCGGYDSSSNSDVYGAGTTLTVL ; field requested: pEC50
11.00

What measured pEC50 goes with anti-CNTN4 IgG A13WB73 (antibody, V domains shown, human IgG4 (S228P)) VH: AVTLDESGGGLHTPGGVLSLVCKASGFTFSSYGMAWVRQAPGKGLEWVAGITSSGSSAGYGPAVKGRATISRDNGQSTVRLQLNNLRAEDTATYYCAKDGYIYSGADSDSIDAWGHGTEVIVSS VL: ALTQPSSVSANLGGTVEITCSGGYSGYGWYQQMSPGSAPVTLTYYNDKRPSNIPSRFSGSKSGSTATLAITGVQAEDEAVYYCGSWDTSTNTPIFGAGTTLTVL ?
11.00

Would you mind telling me what pEC50 value was observed for anti-CNTN4 IgG A13WB7 (antibody, V domains shown, human IgG4 (S228P)) VH: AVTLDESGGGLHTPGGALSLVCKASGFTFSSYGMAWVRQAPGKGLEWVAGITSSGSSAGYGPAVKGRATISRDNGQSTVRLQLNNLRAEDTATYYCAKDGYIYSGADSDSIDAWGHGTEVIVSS VL: ALTQPSSVSANPGETVKITCSGGGSSSYYNYGWYQQKSPGSAPVTVIYYNDKRPSDIPSRFSGSKSGSTGTLTITGVQAEDEAVYYCGSWDSSTYSDIFGAGTTLTVL ?
11.00
